# system: human PPARδ (hPPARδ) (Homo sapiens, UniProt Q03181)
# Sequence (Q03181 139-441 limits assumed): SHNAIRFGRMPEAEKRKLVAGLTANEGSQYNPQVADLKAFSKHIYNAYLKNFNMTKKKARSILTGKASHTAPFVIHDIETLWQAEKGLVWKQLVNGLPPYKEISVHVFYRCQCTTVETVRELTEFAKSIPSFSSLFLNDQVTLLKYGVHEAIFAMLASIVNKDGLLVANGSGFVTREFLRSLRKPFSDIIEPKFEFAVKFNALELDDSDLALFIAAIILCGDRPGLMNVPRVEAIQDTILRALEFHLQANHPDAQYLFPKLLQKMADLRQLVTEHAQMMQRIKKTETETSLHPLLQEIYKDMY
# procedure_summary: cell-based
Reported EC50 values follow for various molecules
# number only, unit nM dropped from output

Cc1c(CSc2ccc([C@@H](C)CC(=O)O)cc2)noc1-c1ccc(C(F)(F)F)cc1: 18.9

Q: So what does the record say about EC50 for CCO/N=C/c1c(CSc2ccc(C(C)CC(=O)O)cc2OC)noc1-c1ccc(C(F)(F)F)cc1 (centres unmarked) ?
Ans: 1.3
